# measurementProtocol: Lipophilicity, log D of the compound at 100 uM at pH 7.4 after 24 hrs by HPLC method
# Assay type: physicochemical
# cond: buffer
Kindly state logD at 24 h, 100 µM for each of the entries shown.
Give bare numbers.

>>> print(df.to_string())
                                   molecule  valueobserved
0  Cc1noc(C)c1-c1ccc(Cl)c(COc2ccc3c(c2)OCC3CC(=O)O)c1 (configuration not stated)           2.13
1  Cc1noc(C)c1-c1cccc(COc2ccc3c(c2)OCC3CC(=O)O)c1 (configuration not stated)           1.57

Below are 3 molecules. Give each one its logD at 24 h, 100 µM.
1. Cc1ccc(C)n1-c1cccc(COc2ccc3c(c2)OCC3CC(=O)O)c1 (configuration not stated)
2. Cc1noc(C)c1-c1cc(COc2ccc3c(c2)OC[C@H]3CC(=O)O)ccc1Cl
3. Cc1ccc(-c2c(C)noc2C)cc1COc1ccc2c(c1)OCC2CC(=O)O (configuration not stated)

3.95
1.93
2.07

For each of the items listed, what is its logD at 24 h, 100 µM?
1. Cc1noc(C)c1-c1cc(COc2ccc3c(c2)OCC3CC(=O)O)ccc1Cl (configuration not stated)
2. [2H]C([2H])(Cc1ccc(OCc2cccc(-c3c(C)noc3C)c2)cc1)C(=O)O

1.96
1.83

----------
# Test system: Mus musculus
# measurementProtocol: Antidiabetic activity in ICR mouse assessed as reduction in blood glucose AUC (0 to 120 mins) at 40 mg/kg, po dosed 30 minutes prior to glucose challenge by OGTT relative to control
# Assay type: functional
Activity calls are given as the source filed them. The rule behind the calls is not given here.
readoutKind: Activity

                                   compound  valueobserved
0  Cc1noc(C)c1-c1ccc(Cl)c(COc2ccc3c(c2)OCC3CC(=O)O)c1 (centres undefined)         Active
1  Cc1noc(C)c1-c1cc(COc2ccc3c(c2)OCC3CC(=O)O)ccc1Cl (centres undefined)         Active
2  Cc1noc(C)c1-c1cc(COc2ccc3c(c2)OC[C@H]3CC(=O)O)ccc1Cl          26.2%
3  Cc1noc(C)c1-c1cccc(COc2ccc3c(c2)OCC3CC(=O)O)c1 (centres undefined)         Active

----------
# measurementProtocol: Cmax in fasted Sprague-Dawley rat at 3 mg/kg, po administered as single dose by LC-PDA-MS/MS analysis
# Assay type: ADME, organism-based
# Set-up: dose 3 mg/kg, route oral
# cond: in vivo
readoutKind: Cmax (ng/mL)
Answers are plain numbers, in ng/mL.

>>> df
                                   molecule  readoutkind  valueobserved
0  Cc1noc(C)c1-c1cc(COc2ccc3c(c2)OC[C@H]3CC(=O)O)ccc1Cl         Cmax          14100

Now for a further molecule.
Value lookup for Cmax; key = Cc1cc(OCCCS(C)(=O)=O)cc(C)c1-c1cccc(COc2ccc3c(c2)OC[C@H]3CC(=O)O)c1
6460

----------
Please provide measured AUC(0-t) at 24 h for the entries that follow.
# measurementProtocol: AUC (0 to 24 hrs) in fasted Sprague-Dawley rat at 3 mg/kg, po administered as single dose by LC-PDA-MS/MS analysis
# Type: ADME, organism-based
# Parameters: dose 3 mg/kg, time < 24 hr, route oral
# cond: in vivo
Numbers only, in µg·h/mL.

In [3]: df
Out[3]:
                                   molecule  valueunits  valueobserved
0  Cc1cc(OCCCS(C)(=O)=O)cc(C)c1-c1cccc(COc2ccc3c(c2)OC[C@H]3CC(=O)O)c1     µg·h/mL           79.5

Need AUC(0-t) at 24 h of Cc1noc(C)c1-c1cc(COc2ccc3c(c2)OC[C@H]3CC(=O)O)ccc1Cl , thanks.
142

----------
# targetDesc: UniProt O14842
# Sequence (O14842 whole entry): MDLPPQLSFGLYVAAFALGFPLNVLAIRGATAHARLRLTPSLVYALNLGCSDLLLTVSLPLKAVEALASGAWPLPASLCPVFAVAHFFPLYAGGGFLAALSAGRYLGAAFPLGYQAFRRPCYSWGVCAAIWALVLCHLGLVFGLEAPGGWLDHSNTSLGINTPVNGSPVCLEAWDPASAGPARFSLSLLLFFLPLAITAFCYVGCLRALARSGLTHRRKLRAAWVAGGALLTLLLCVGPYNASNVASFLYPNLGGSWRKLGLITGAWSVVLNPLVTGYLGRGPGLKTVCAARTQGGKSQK
# measurementProtocol: Agonist activity at human FFA1 expressed in CHO cells assessed as increase in intracellular Ca2+ flux by Fluo-4 dye based FLIPR assay
In plain terms, low EC50, meaning strictly below 40 nM, gives MET, and everything else gives NOT MET.

Is EC50 strictly under 40 nM for the entry Cc1ccc(-c2c(C)noc2C)cc1COc1ccc2c(c1)OCC2CC(=O)O (stereo not given) ?
NOT MET

Does Cc1noc(C)c1-c1cccc(COc2ccc3c(c2)OCC3CC(=O)O)c1 (stereo not given) have EC50 strictly under 40 nM?
MET

Say whether its EC50 is strictly beneath 40 nM. Entry: [2H]C([2H])(Cc1ccc(OCc2cccc(-c3c(C)noc3C)c2)cc1)C(=O)O
MET

Is 40 nM strictly greater than the molecule's reported EC50? molecule: Cc1ccc(C)n1-c1cccc(COc2ccc3c(c2)OCC3CC(=O)O)c1 (stereo not given)
NOT MET

Determine if Cc1nn(C)c(C)c1-c1cccc(COc2ccc3c(c2)OCC3CC(=O)O)c1 (stereo not given) shows EC50 strictly lower than 40 nM.
NOT MET

Please determine if [2H]C([2H])(Cc1ccc(OCc2cccc(-c3c(C)noc3C)c2)cc1F)C(=O)O is below 40 nM in terms of EC50.
NOT MET

Dear colleague, could you confirm whether EC50 of Cc1ccsc1-c1cccc(COc2ccc3c(c2)OCC3CC(=O)O)c1 (stereo not given) falls below 40 nM? Thanks.
NOT MET

Please let me know if Cc1noc(C)c1-c1cc(COc2ccc3c(c2)OCC3CC(=O)O)ccc1Cl (stereo not given) shows EC50 below 40 nM.
MET

# check: EC50 < 40 nM for Cc1noc(C)c1-c1cc(COc2ccc3c(c2)OC[C@H]3CC(=O)O)ccc1Cl
MET
